# System: HT-29
# measurement_protocol: Antiproliferative activity against human HT-29 cells harbouring wild-type KRAS assessed as cell growth inhibition by CellTiter-Glo assay
# Type: functional, cell-based
measured_endpoint: IC50 (µM)

[[record]]
molecule = "N#Cc1c(N)sc2c(F)ccc(-c3c(Cl)c4c5c(nc(OC[C@@]67CCCN6C[C@H](F)C7)nc5c3F)N3CCCOC[C@H]3CO4)c12 (single isomer, unassigned; atropisomer 2)"
measured_endpoint = "IC50"
quantity_unit = "µM"
value = 3.23


###

# Test system: ASPC1
# measurement_protocol: Antiproliferative activity against human ASPC1 cells harbouring KRAS G12D mutant assessed as reduction in cell viability incubated for 72 hrs
# Assay type: functional, cell-based
# stated_conditions: aspc1
measured_endpoint: IC50 (nM)

[[record]]
molecule = "N#Cc1c(N)sc2c(F)ccc(-c3c(Cl)c4c5c(nc(OC[C@@]67CCCN6C[C@H](F)C7)nc5c3F)N3CCCCCC3CO4)c12 (single isomer, unassigned; atropisomer 2)"
quantity_unit = "nM"
value = 713

[[record]]
molecule = "N#Cc1c(N)sc2c(F)ccc(-c3c(Cl)c4c5c(nc(OC[C@@]67CCCN6C[C@H](F)C7)nc5c3F)N3CCCCCC3CO4)c12 (single isomer, unassigned; atropisomer 1)"
quantity_unit = "nM"
value = 4000

[[record]]
molecule = "N#Cc1c(N)sc2c(F)ccc(-c3c(Cl)c4c5c(nc(OC[C@@]67CCCN6C[C@H](F)C7)nc5c3F)N3CCCOC[C@H]3CO4)c12 (single isomer, unassigned; atropisomer 1)"
quantity_unit = "nM"
value = 8780

[[record]]
molecule = "N#Cc1c(N)sc2c(F)ccc(-c3c(Cl)c4c5c(nc(OC[C@@]67CCCN6C[C@H](F)C7)nc5c3F)N3CCCOC[C@H]3CO4)c12 (single isomer, unassigned; atropisomer 2)"
quantity_unit = "nM"
value = 378

